assayProtocol: In vitro cytotoxicity assay (MTT cell viability) in HepG2 cells
Assay type: cell-based, human
appliedConditions: human
CC50 at 7 days reference

Here is how some molecules turned out for CC50 at 7 days.
Cc1c(C(=O)Nc2cc(F)c(F)c(F)c2)c(C)n(C)c1C(=O)C(=O)Nc1ccc(F)cn1    5 to 30 µM
Cc1cc(NC(=O)c2c(C)c(C(=O)C(=O)NC(C)(C)c3nc(CN(C)C)no3)n(CCF)c2C)ccc1F    > 30 µM
COc1c(C(=O)Nc2ccc(F)c(F)c2)c(C)n(C)c1C(=O)C(=O)N[C@@H]1CCC[C@@H]1O    > 30 µM
Cc1cc(NC(=O)c2c(C)c(C(=O)C(=O)N[C@H](CO)C(N)=O)n(C)c2C)ccc1F    > 30 µM
Cc1cc(NC(=O)c2c(Cl)c(C(=O)C(=O)NC3(CO)CC(F)(F)C3)n3c2CCC3)cnc1F    > 30 µM

Fill in: CC50 at 7 days of `O=C(N[C@H]1C[C@H](O)C1)C(=O)c1c(Cl)c(C(=O)Nc2ccc(F)c(Cl)c2)c2n1CCC2` is ___
5 to 30 µM

Fill in: CC50 at 7 days of `Cc1cc(NC(=O)c2c(C)c(C(=O)C(=O)N[C@]3(C)CC[C@@H](O)CC3)n(C)c2C)ccc1F` is ___
> 30 µM

Fill in: CC50 at 7 days of `Cc1cc(NC(=O)c2c(Cl)c(C(=O)C(=O)NC(C)(C)C(F)(F)F)n3c2CCCC3)cnc1F` is ___
> 30 µM

Fill in: CC50 at 7 days of `Cc1cc(NC(=O)c2c(C)c(C(=O)C(=O)NC3(c4nnn[nH]4)CCCC3)n(C)c2C)ccc1F` is ___
> 30 µM

Fill in: CC50 at 7 days of `Cc1c(C(=O)Nc2ccc(F)c(F)c2)c2n(c1C(=O)C(=O)N[C@H]1COC[C@@H]1O)CCCC2` is ___
> 30 µM

Fill in: CC50 at 7 days of `Cc1cc(NC(=O)c2c(C)c(C(=O)C(=O)NC(C)(C)C)n(CCO)c2C)ccc1F` is ___
> 30 µM

----------
assayProtocol: In vitro cytotoxicity assay (MTT cell viability) in HepG2 cells
Type: cell-based, human
appliedConditions: human
CC50 at 7 days reference

Fill in: CC50 at 7 days of `Cc1cc(NC(=O)c2c(C)c(C(=O)C(=O)NC3(CO)CC(F)(F)C3)n(CCF)c2C)ccc1F` is ___
5 to 30 µM

----------
assayProtocol: In vitro cytotoxicity assay (MTT cell viability) in HepG2 cells
Type: cell-based, human
appliedConditions: human
Procedure: To evaluate antiviral selectivity, the cytotoxic activity of each compound was determined using a standard cell viability assay performed on the parental HepG2 cell line. Cell viability was determined by measuring the conversion of 3-(4,5-dimethylthiazol-2-yl)-2,5-diphenyltetrazolium bromide (MTT) to the insoluble formazan salt crystal that occurs in live cells. […] All absorbance values were converted to a percentage of the signal obtained from the vehicle treated controls. […]
readoutName: CC50 at 7 days

Here is how some molecules turned out for CC50 at 7 days.
CC(C)(C)NC(=O)C(=O)c1cc(C(=O)Nc2ccc(F)c(C#N)c2)c2n1CCCC2    5 to 30 µM
Cc1noc([C@H](C)NC(=O)C(=O)c2c(Cl)c(C(=O)Nc3ccc(F)c(Cl)c3)c3n2CCCC3)n1    5 to 30 µM

Fill in: CC50 at 7 days of `Cc1cc(NC(=O)c2c(Cl)c(C(=O)C(=O)NC3(CO)CC(F)(F)C3)n3c2CCCC3)ccc1F` is ___
5 to 30 µM

Fill in: CC50 at 7 days of Cc1cc(NC(=O)c2c(C)c(C(=O)C(=O)NC3(C(F)(F)F)CCOC3)n(C)c2C)ccc1F (stereo not drawn) is ___
> 30 µM

Fill in: CC50 at 7 days of `Cc1cc(NC(=O)c2c(C)c(C(=O)C(=O)NC3(c4noc(C(F)F)n4)CCC3)n(C)c2C)ccc1F` is ___
5 to 30 µM

Fill in: CC50 at 7 days of `Cc1cc(NC(=O)c2c(C)c(C(=O)C(=O)NC3(C(=O)NC(C)C)CCOCC3)n(C)c2C)ccc1F` is ___
> 30 µM

Fill in: CC50 at 7 days of `Cc1noc([C@H](C)NC(=O)C(=O)c2c(Cl)c(C(=O)Nc3ccc(F)c(F)c3)c3n2CCCC3)n1` is ___
> 30 µM
